Target: pp70^ZAP (1-259) (Homo sapiens, UniProt P43403)
Sequence (P43403 1-259): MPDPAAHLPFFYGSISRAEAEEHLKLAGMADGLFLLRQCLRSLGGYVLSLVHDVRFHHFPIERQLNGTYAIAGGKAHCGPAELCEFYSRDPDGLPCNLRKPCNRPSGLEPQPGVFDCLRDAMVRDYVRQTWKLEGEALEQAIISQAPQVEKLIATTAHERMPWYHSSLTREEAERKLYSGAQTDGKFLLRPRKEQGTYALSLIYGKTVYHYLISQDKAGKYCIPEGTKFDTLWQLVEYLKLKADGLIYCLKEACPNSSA
Assay: Tandem ZAP competitive binding assay, surface plasmon resonance (BIAcore)
Conditions: 10 nM protein; ζ-chain ITAM-1 of human T-cell receptor as ligand; read-out: N,CZap IC-50
Protocol: Binding was measured by competition using surface plasmon resonance (Malmqvist, M. (1993) Current Opinions in Immunology 5, 282-286) as implemented in the BIAcore Biosensor (Pharmacia Biosensor, Piscataway, N.J.). […] Results were compared to binding measured in the absence of competitor and expressed as percent inhibition. IC50values reflect the concentration of inhibitor required to reduce binding by 50%. Specifics of individual assays are described below. […]
pIC50: −log10 of the molar value. Square brackets hold non-standard residues; d marks the D form. Peptide text beside a SMILES is read from it. * marks the point of attachment. Tyr(3,5-(NO2)2) = N[C@@H](Cc1cc([N+](=O)[O-])c(O)c([N+](=O)[O-])c1)C(=O)O; Acetyl(9-fluorenyl) = O=C(CC1c2ccccc2-c2ccccc21)*; Acetyl(2-naphthyl) = O=C(Cc1ccc2ccccc2c1)*; 1Nal = N[C@@H](Cc1cccc2ccccc12)C(=O)O; 2Nal = N[C@@H](Cc1ccc2ccccc2c1)C(=O)O; Fmoc = O=C(OCC1c2ccccc2-c2ccccc21)*
Items are presented alongside their recorded pIC50.

Would you please look over these solved cases?
>>> obs_value("CC(=O)N[C@@H](Cc1ccccc1)C(=O)N[C@@H](Cc1cc([N+](=O)[O-])c(O)c([N+](=O)[O-])c1)C(=O)N[C@@H](CCC(=O)O)C(=O)N[C@H](C(=O)N[C@@H](CC(C)C)C(N)=O)[C@@H](C)O (Ac-F[Tyr(3,5-(NO2)2)]ETL-NH2)")
"< 3.00"
>>> obs_value("CC(=O)N[C@@H](Cc1cccc2ccccc12)C(=O)N[C@@H](Cc1cc([N+](=O)[O-])c(O)c([N+](=O)[O-])c1)C(=O)N[C@@H](CCC(=O)O)C(=O)N[C@H](C(=O)N[C@@H](CC(C)C)C(N)=O)[C@@H](C)O (Ac-[1Nal][Tyr(3,5-(NO2)2)]ETL-NH2)")
"< 4.00"
>>> obs_value("CC(C)C[C@H](NC(=O)[C@@H](NC(=O)[C@H](CCC(=O)O)NC(=O)[C@H](Cc1cc([N+](=O)[O-])c(O)c([N+](=O)[O-])c1)NC(=O)CC1c2ccccc2-c2ccccc21)[C@@H](C)O)C(N)=O ({Acetyl(9-fluorenyl)}-[Tyr(3,5-(NO2)2)]ETL-NH2)")
"< 4.00"
>>> obs_value("CC(C)C[C@H](NC(=O)[C@@H](NC(=O)[C@H](CCC(=O)O)NC(=O)[C@H](Cc1cc([N+](=O)[O-])c(O)c([N+](=O)[O-])c1)NC(=O)OCC1c2ccccc2-c2ccccc21)[C@@H](C)O)C(N)=O [ETLNH2] (Fmoc-[Tyr(3,5-(NO2)2)]ETL-NH2)")
3.46
>>> obs_value("CC(C)C[C@H](NC(=O)[C@@H](NC(=O)[C@H](CCC(=O)O)NC(=O)[C@H](Cc1cc([N+](=O)[O-])c(O)c([N+](=O)[O-])c1)NC(=O)Cc1ccc2ccccc2c1)[C@@H](C)O)C(N)=O ({Acetyl(2-naphthyl)}-[Tyr(3,5-(NO2)2)]ETL-NH2)")
"< 4.00"
>>> obs_value("CC(=O)N[C@@H](Cc1ccc2ccccc2c1)C(=O)N[C@@H](Cc1cc([N+](=O)[O-])c(O)c([N+](=O)[O-])c1)C(=O)N[C@@H](CCC(=O)O)C(=O)N[C@H](C(=O)N[C@@H](CC(C)C)C(N)=O)[C@@H](C)O (Ac-[2Nal][Tyr(3,5-(NO2)2)]ETL-NH2)")
"< 3.30"

Continue with the compound presented below.
What value of measured pIC50 is listed for CC(=O)N[C@H](Cc1ccccc1)C(=O)N[C@@H](Cc1cc([N+](=O)[O-])c(O)c([N+](=O)[O-])c1)C(=O)N[C@@H](CCC(=O)O)C(=O)N[C@H](C(=O)N[C@@H](CC(C)C)C(N)=O)[C@@H](C)O (Ac-[dF][Tyr(3,5-(NO2)2)]ETL-NH2) ? < 4.00

Reference source: patent US5710129A
